- Tested on: LOC_OS01G01410-cb001
- test-summary: thermal shift delta Tm vs DMSO control; higher = stronger stabilization (binding);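 also: purified Escherichia coli-expressed rice kinase domain construct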
- experimental-setup: 12.5 µM; protein concentration 2 µM
Where a name gives a salt, the structure may show the parent alone.
property-label: thermal shift delta Tm (°C)

• N#CCNC(=O)c1ccc(-c2ccnc(Nc3ccc(N4CCOCC4)cc3)n2)cc1 = 2.55
• COc1cc2nccc(Oc3ccc(NC(=O)c4cn(C(C)C)c(=O)n(-c5ccc(F)cc5)c4=O)cc3F)c2cc1OC = 0.17
• N#C/C(=C\c1ccc(O)c(O)c1)C(=O)NCc1ccccc1 = 2.63
• Cc1cn(-c2cc(NC(=O)c3ccc(C)c(Nc4nccc(-c5cnccn5)n4)c3)cc(C(F)(F)F)c2)cn1 = 0.24
• C=CC(=O)N1CC[C@@H](Oc2nc(Nc3ccc(N4CCC(N5CCN(C)CC5)CC4)cc3)c(C(N)=O)nc2CC)C1 = 5.21
• N=C(N)NC(=N)NCCc1ccccc1 [Phenformin HCl] = 0.54
• Cc1ccc(NC(=O)c2cccc(C(C)(C)C#N)c2)cc1Nc1ccc2ncn(C)c(=O)c2c1 = 0.91
• CCCCOc1c(C(=O)c2c(F)cc(C)cc2F)c[nH]c2nncc1-2 = 1.01
• CC#CC(=O)N1CC[C@@H](n2c(=O)n(-c3ccc(Oc4ccccc4)cc3)c3c(N)ncnc32)C1 [ONO-4059 (GS-4059) hydrochloride] = 0.39
• Cc1ccc(NC(=O)c2ccc(CN3CC[C@H](N(C)C)C3)c(C(F)(F)F)c2)cc1Nc1nccc(-c2cncnc2)n1 = 0.65
• COc1cc(Nc2c(C#N)cnc3cc(OCCCN4CCN(C)CC4)c(OC)cc23)c(Cl)cc1Cl [Bosutinib (SKI-606)] = 0.89
• CCNC(=O)Nc1ccc(-c2nc3c(c(N4CCOC[C@@H]4C)n2)CCN(C2COC2)C3)cc1 = 0.46
• CONC(=O)c1ccccc1Nc1cc(Nc2cc(C)nn2C(C)C)ncc1Cl = 0.19
• CCCCNc1ncc(C(=O)NCc2ccc(-n3ccnc3)cc2)c(NC2CCC(O)CC2)n1 (configuration not stated) = 3.78
• C[C@@H](N)[C@H]1CC[C@H](C(=O)Nc2ccncc2)CC1 = 1.02
• Cc1ncc(CO)c(CO)c1O = -0.03
• N#CC1(c2ccc(NC(=O)c3cccnc3NCc3ccncc3)cc2)CCCC1 = 1.1

* * *

- Tested on: LOC_OS03G12390-cb001
- test-summary: thermal shift delta Tm vs DMSO control; higher = stronger stabilization (binding)
- experimental-setup: 12.5 µM; protein concentration 2 µM
Structures can show the parent of a compound that is named as a salt.
Label scheme for thermal shift delta Tm: lower than 0.5 °C is NO, 0.5 °C and above is YES.

• Cn1nccc1Nc1nccc(-c2ccn([C@H](CO)c3ccc(Cl)c(F)c3)c(=O)c2)n1 = YES
• Cc1ccc(Nc2nccc(N(C)c3ccc4c(C)n(C)nc4c3)n2)cc1S(N)(=O)=O = NO
• Cc1cc(CN2CCN(c3c(Br)cnc4nc(-c5ccc(N6CCN(C)CC6)cc5)[nH]c34)CC2)no1 = YES
• CC(C)(C)c1nc(-c2ccc(NC(=O)Nc3cccc(C(F)(F)F)c3)c3ccccc23)c2c(N)nccn12 = YES
• c1ccc(-c2[nH]ncc2-c2ccnc3ccccc23)nc1 = NO
• Cc1cc(Nc2cc(N3CCN(C)CC3)nc(/C=C/c3ccccc3)n2)n[nH]1 = YES
• C[C@H]1CNCCCN1S(=O)(=O)c1cccc2cncc(F)c12 [Ripasudil (K-115) hydrochloride dihydrate] = NO
• O=C(O[C@@H]1Cc2c(O)cc(O)cc2O[C@@H]1c1cc(O)c(O)c(O)c1)c1cc(O)c(O)c(O)c1 [(-)-Epigallocatechin Gallate] = NO
• Oc1cc(O)cc(/C=C/c2ccc(O)c(O)c2)c1 = NO
• C[C@H](NC(=O)/C(C#N)=C/c1cccc(Br)n1)c1ccccc1 = NO
• COc1cc(N2CCC(N)CC2)ccc1Nc1ncc(Cl)c(-c2c[nH]c3ccccc23)n1 = YES
• Cc1ccc(NC(=O)c2ccc(CN3CCN(C)CC3)cc2)cc1Nc1nccc(-c2cccnc2)n1 [Imatinib Mesylate (STI571)] = YES
• C[C@@H](Oc1cc(-c2cnn(C3CCNCC3)c2)cnc1N)c1c(Cl)ccc(F)c1Cl = YES
• Cc1ccc([N+](=O)[O-])cc1S(=O)(=O)N(C)/N=C/c1cnc2ccc(Br)cn12 = NO
• Nc1ncc(-c2ccnc(Nc3ccncc3)n2)c(CC2CC2)n1 = YES
• Cc1ccc(NC(=O)c2ccc(CN3CCN(C)CC3)cc2)cc1Nc1nc(-c2cccnc2)cs1 = NO
• Cc1cc(Nc2ncc(Cl)c(Nc3ccccc3S(=O)(=O)C(C)C)n2)c(OC(C)C)cc1C1CCNCC1 = YES
• C=C[C@@](C)(/C=C/c1ccc(O)cc1)CCC=C(C)C = NO
• CC(C)(O)CNc1ncc(-c2ccnc(Nc3ccnc(Cl)c3)n2)c(CC2CC2)n1 = NO
• CNc1nc(Nc2cn(C(C)(C)C#N)nc2C)ncc1C(F)(F)F = NO
• Clc1ccc(C2(c3ccc(-c4cn[nH]c4)cc3)CCNCC2)cc1 = NO
• CN1CCN(c2ccc3nc(-c4c(N)c5c(F)cccc5[nH]c4=O)[nH]c3c2)CC1 [Dovitinib (TKI-258) Dilactic Acid] = YES
• CNC(=O)c1nn(C)c2c1C(C)(C)Cc1cnc(Nc3ccc(N4CCN(C)CC4)cc3)nc1-2 = NO
• Nc1ncnc2c1c(-c1cnc3[nH]ccc3c1)nn2C1CCCC1 = YES
• O=S(=O)(NCCNC/C=C/c1ccc(Br)cc1)c1cccc2cnccc12 = NO
• C=CC(=O)N1CC[C@@H](Oc2nc(Nc3ccc(N4CCC(N5CCN(C)CC5)CC4)cc3)c(C(N)=O)nc2CC)C1 = YES
• COc1cc2/c(=N/c3ccc(Br)cc3F)nc[nH]c2cc1OCC1CCN(C)CC1 [Vandetanib (ZD6474)] = YES
• O=C(Nc1nccs1)C(c1cc(F)ccc1O)N1Cc2ccccc2C1=O (stereo not given) = NO
• CC(C)Nc1cc(-c2c[nH]c(C(=O)N[C@H](CO)c3cccc(Cl)c3)c2)c(Cl)cn1 = YES
• Nc1nccc(Oc2ccc3c(C(=O)Nc4cccc(C(F)(F)F)c4)cccc3c2)n1 = NO
• CN1CCN(c2cccc(Nc3nc4c(-c5ccc(S(C)(=O)=O)cc5)cccn4n3)c2)CC1 = NO
• C[C@@]1(C(=O)Nc2ccc(F)nc2)CCCN1c1nc(Nc2cc(C3CC3)n[nH]2)c2cccn2n1 = YES
• O=C1NC(=O)C(=Cc2ccc(-c3ccc(F)cc3)o2)S1 (stereo in doubt) = YES
• Nc1ncccc1-c1nc2ccc(-c3ccccc3)nc2n1-c1ccc(C2(N)CCC2)cc1 [Miransertib (ARQ 092) HCl] = NO
• CC(C)(C)c1cc(NC(=O)Nc2ccc(Oc3ccnc4[nH]c(=O)cnc34)cc2F)n(-c2ccccc2)n1 = YES
